Task for the reader: assign each of the following compounds its reported pIC50.
targetEntity: JAK1-JH2 domain (Homo sapiens, UniProt P23458)
Construct: IC50 on JH2 domain activity (nM)
Sequence (P23458 583-855 limits assumed): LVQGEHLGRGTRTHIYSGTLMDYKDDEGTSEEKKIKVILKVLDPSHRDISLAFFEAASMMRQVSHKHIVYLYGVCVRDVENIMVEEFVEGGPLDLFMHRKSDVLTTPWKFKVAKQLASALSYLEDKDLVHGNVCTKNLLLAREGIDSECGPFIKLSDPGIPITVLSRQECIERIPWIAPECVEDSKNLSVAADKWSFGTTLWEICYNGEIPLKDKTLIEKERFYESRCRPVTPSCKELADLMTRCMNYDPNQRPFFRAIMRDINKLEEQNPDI
test: Binding activity test for JH2 domain of JAK1 (Tb-antibody/tracer FRET)
Reminder that pIC50 means the negative base-10 logarithm of the concentration expressed in mol/L.

Data request: Return pIC50 for the following compound: [2H]C([2H])([2H])NC(=O)c1cnc(NC(=O)C2CC2)cc1Nc1ccn2ncc(C)c2c1OC
Data returned: 8.06

Data request: Return pIC50 for the following compound: [2H]C([2H])([2H])NC(=O)c1cnc(NC(=O)C2CC2)cc1Nc1ccc2cnn(CC(F)F)c2c1OC
Data returned: 7.88

Data request: Return pIC50 for the following compound: [2H]C([2H])([2H])NC(=O)c1cnc(NC(=O)C2CC2)cc1Nc1ncc2cnn(C3CC3)c2c1OC
Data returned: 8.03

Data request: Return pIC50 for the following compound: [2H]C([2H])([2H])NC(=O)c1cnc(Nc2ccncn2)cc1Nc1ccc2cnn(C([2H])([2H])[2H])c2c1OC
Data returned: 7.82

Data request: Return pIC50 for the following compound: [2H]C([2H])([2H])NC(=O)c1cnc(NC(=O)C2CC2)cc1Nc1nn(CC2CC2)c2ccn(CC(F)(F)F)c(=O)c12
Data returned: 7.73

Data request: Return pIC50 for the following compound: [2H]C([2H])([2H])NC(=O)c1cnc(NC(=O)C2CC2)cc1Nc1ccc2cnn(C(C)C#N)c2c1OC (single isomer, unassigned) [Example 249B]
Data returned: 7.54

Data request: Return pIC50 for the following compound: [2H]C([2H])([2H])NC(=O)c1cnc(NC(=O)C2CC2)cc1Nc1ncc2cnn(CC)c2c1OC
Data returned: 7.83
